Value source: paper PMC4955388

- ASSAY_NAME: Intrinsic clearance in rat hepatic microsomes and predicted hepatic clearance
- Assay type: in vitro ADME
- RUN_PARAMETERS: rat, liver microsomes
READOUT_LABEL: CLint scaled at 1 µM (L/h/kg)
Lab book: enter the figure in L/h/kg, no units written.

# COMPOUND, CLint scaled at 1 µM [L/h/kg]
records = [
    ("Cc1ccc(S(=O)(=O)n2ccc(NC(=O)c3ccccn3)c2)cc1 [11l]", 162),
    ("Cc1ccc(S(=O)(=O)n2cc(NC(=O)c3ccccn3)cn2)cc1C [11s]", 228),
    ("Cc1cccc(S(=O)(=O)n2ccc(NC(=O)c3ccccn3)c2)c1 [11m]", 242),
    ("Cc1cc(S(=O)(=O)n2ccc(NC(=O)c3ccccn3)c2)ccc1Cl [11t]", 207),
    ("Cc1ccc(S(=O)(=O)n2ccc(NC(=O)c3ccccn3)c2)cc1C [11r]", 17.6),
]

Next:
**Q:** Name the reported CLint scaled at 1 µM value associated with the compound O=C(Nc1ccn(S(=O)(=O)c2ccc(Cl)cc2)c1)c1ccccn1 [11o]
**A:** 67.6

* * *

- ASSAY_NAME: Intrinsic clearance in rat hepatic microsomes and predicted hepatic clearance
- Format: in vitro ADME
- RUN_PARAMETERS: calculated from rat microsomal CLINT
READOUT_LABEL: Rat CLHEP (predicted hepatic clearance) (mL/min/kg)
Response body: numeric value in mL/min/kg, unit text excluded.

# COMPOUND, UNIT_OF_MEASURE, OBSERVED
data = [
    ("Cc1ccc(S(=O)(=O)n2cc(NC(=O)c3ccccn3)cn2)cc1C [11s]", "mL/min/kg", 68.7),
    ("Cc1cccc(S(=O)(=O)n2ccc(NC(=O)c3ccccn3)c2)c1 [11m]", "mL/min/kg", 68.8),
    ("O=C(Nc1ccn(S(=O)(=O)c2ccc(Cl)cc2)c1)c1ccccn1 [11o]", "mL/min/kg", 65.9),
]

**Q:** // lookup Rat CLHEP (predicted hepatic clearance) for Cc1cc(S(=O)(=O)n2ccc(NC(=O)c3ccccn3)c2)ccc1Cl [11t]
**A:** 68.6

**Q:** Which Rat CLHEP (predicted hepatic clearance) is reported for this compound? Cc1ccc(S(=O)(=O)n2ccc(NC(=O)c3ccccn3)c2)cc1 [11l]
**A:** 68.2
